Data origin, for the record: patent WO2011083140A1

Target: T1, human CXCR4 (human, UniProt P61073 1-352)
T1 construct: whole, on cells; Same receptor used on cells, on VLPs and in membrane extracts; also called hCXCR4; human chemokine receptor CXCR4
T1 sequence (P61073 whole entry): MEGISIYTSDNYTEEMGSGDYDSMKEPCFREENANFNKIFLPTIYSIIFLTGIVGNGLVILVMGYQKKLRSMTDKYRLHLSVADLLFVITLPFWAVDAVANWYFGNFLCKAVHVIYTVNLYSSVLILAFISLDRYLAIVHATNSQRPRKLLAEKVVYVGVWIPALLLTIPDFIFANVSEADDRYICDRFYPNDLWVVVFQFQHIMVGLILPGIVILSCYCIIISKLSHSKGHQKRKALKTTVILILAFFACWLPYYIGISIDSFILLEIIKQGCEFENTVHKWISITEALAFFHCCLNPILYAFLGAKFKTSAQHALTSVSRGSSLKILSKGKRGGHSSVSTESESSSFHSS
Assay: binding to CXCR4 VLP, Table C-3
Simple rule here: EC50 less than 0.5 nM is met, otherwise not met.

Does the reported EC50 of 4CXCR015A01 (VHH, not shown: small tags and cut ends, also called 15A1; P4CXCR15A01) VHH: EVQLVESGGGLVQAGGSLRLSCAASGRTFSRAAMGWFRQAPGKEREFVGCALSSAGSALTADSVKGRFTISRDNAKNMVYLQMNNLKPEDTAVYSCVAGGYCTRAGVYPYWGQGTQVTVSS stay below 0.5 nM?
met

Does the reported EC50 of 4CXCR010E09 (VHH, Monovalent Nanobody from E. coli; also called 10E9; P4CXCR10E09; not shown: C-terminal c-myc tag and His6 tag) VHH: EVQLVESGGGLVQTGGSLRLSCAASGRTFSSYAMGWFRRAPGKEREFVATISWRGDRKYYSESVKDRFTIARGRSNKNAVYLQMNSLKPEDTAVYYCAKDRAPYGSGSPDVKQYEHWGQGTQVTVSS stay below 0.5 nM?
not met

Does the reported EC50 of 4CXCR010G10 (VHH, Alexa-647 label in the competition FACS of D-2, also called P4CXCR10G10; not shown: C-terminal c-myc tag and His6 tag) VHH: EVQLVESGGGLVQAGGSLRLSCAASGRTFNSYAMAWFRQAPGKERENVAAIRWSGGRATKYADSVRGRFTISKDNAKNTVYLQMSSLKPEDTAVYYCATQTYYRSGLASTRDFDSWGQGTQVTVSS stay below 0.5 nM?
met

Does the reported EC50 of 4CXCR014A02 (VHH, also called 14A2; not shown: C-terminal c-myc tag and His6 tag) VHH: EVQLVESGGGLVQAGGSLRLSCVASGISSSIRNMGWYRQAPGKQRESVATISSGGNKDYTDAVKDRFTISRDTTKNTVYLQMSSLKPEDTAVYYCKIEAGTGWATRRGYTYWGQGTQVTVSS stay below 0.5 nM?
not met

Does the reported EC50 of 4CXCR010E12 (VHH, also called P4CXCR10E12; not shown: C-terminal c-myc tag and His6 tag) VHH: EVQLVESGGGLVQAGGSLRLSCAVSGRTFTSYDMAWFRQAPGKERESVAAIRWTGSSTYYADSVKGRFTISRDNAKSTVYLQMNSLKPEDTAVYYCAARDTGRYRSRTYDYWGQGTQVTVSS stay below 0.5 nM?
met
